Provide the recorded Ki for the entries that follow.
Target: NPY Y2 receptor (Homo sapiens)
Assay: Neuropeptide Y2 radioligand binding assay ([125I]PYY, KAN-Ts membranes)
Conditions: apparent Ki=IC50/(1+C/KD)
Answers are plain numbers, in nM.

CCC(CC)C(=O)Nc1ccc(N2CCN(C(c3ccccc3)c3cccnc3)CC2)c(C#N)c1 (stereo not shown) | 4.3
N#Cc1cc(NC(=O)C2CC2)ccc1N1CCN(C(c2ccccc2)c2ccncc2)CC1 (stereo not shown) | 34
CCC(CC)C(=O)Nc1ccc(N2CCN(C(c3ccccc3)c3ccncc3)CC2)c(C#N)c1 (stereo not shown) | 4.4

We next turn to a different compound, shown below.
Problem: If you can, please state the reported Ki value of `CCC(CC)C(=O)Nc1ccc(N2CCN(C(c3ccc(F)cc3)c3ccc(F)cc3)CC2)c(C#N)c1` .
Result: 150

* * *

Biological target: NPY Y2 receptor (Homo sapiens, UniProt P49146)
Sequence (P49146 1-381): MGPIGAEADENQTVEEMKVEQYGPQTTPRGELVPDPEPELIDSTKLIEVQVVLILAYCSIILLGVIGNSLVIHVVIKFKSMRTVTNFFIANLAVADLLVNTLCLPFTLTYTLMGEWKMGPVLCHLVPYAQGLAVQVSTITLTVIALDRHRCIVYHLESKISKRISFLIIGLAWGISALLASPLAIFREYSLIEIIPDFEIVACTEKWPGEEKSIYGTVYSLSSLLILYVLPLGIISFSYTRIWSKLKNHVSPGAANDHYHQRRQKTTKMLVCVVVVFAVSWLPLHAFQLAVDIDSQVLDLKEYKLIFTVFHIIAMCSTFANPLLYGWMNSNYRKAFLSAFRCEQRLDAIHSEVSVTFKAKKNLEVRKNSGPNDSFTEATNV
Assay: Neuropeptide Y2 pKB assay (FLIPR, KAN-Ts cells stably expressing chimeric G proteins)
Format: cell-based
Conditions: apparent pKB, modified Cheng-Prusoff correction
Entry class follows Kb: low: < 0.04 µM; medium: ≥ 0.04 µM and < 0.1 µM; high: ≥ 0.1 µM

For orientation, consider the following solved cases.
CCC(CC)C(=O)Nc1ccc(N2CCN(C(c3ccccc3)c3ncco3)CC2)c(C)c1 (stereo not shown) [Compound 85] | high
CCc1nc(C(c2ccccc2)N2CCN(c3ccc(NC(=O)C(CC)CC)cc3F)CC2)no1 (stereo not shown) [Compound 236] | low
Cc1noc(C)c1C(=O)Nc1ccc(N2CCN(C(c3ccccc3)c3ccccc3)CC2)c(C#N)c1 [Compound 302] | high
CCC(CC)C(=O)Nc1ccc(N2CCN(C(c3ccccc3)c3nc4ccccc4o3)CC2)c(C#N)c1 (stereo not shown) [Compound 166] | medium
CCc1noc(C(c2ccccc2)N2CCN(c3ccc(NC(=O)C(CC)CC)cc3F)CC2)n1 (stereo not shown) [Compound 1] | low
CCC(CC)C(=O)Nc1ccc(N2CCN(C(c3ccccc3)c3ncco3)CC2)c(F)c1 (stereo not shown) [Compound 20] | medium
CCC(CC)C(=O)Nc1cc(F)c(N2CCN(C(c3ccccc3)c3ncco3)CC2)c(F)c1 (stereo not shown) [Compound 243] | high
CCC(CC)C(=O)Nc1ccc(N2CCN(C(c3ccccc3)c3ccccc3)CC2)c(C#N)c1 [Compound 304] | high

Problem: Input Cc1noc(C)c1C(=O)Nc1ccc(N2CCN(C(c3ccccc3)c3ncco3)CC2)c(F)c1 (stereo not shown) [Compound 113] ; output its category
Result: high

Problem: Band for CCC(CC)C(=O)Nc1ccc(N2CCN(C(c3cccc(F)c3)c3ncco3)CC2)c(C#N)c1 (stereo not shown) [Compound 131] ?
Result: low

Problem: Which bin, given its Kb, does CCC(CC)C(=O)Nc1ccc(N2CCN(C(c3ccc(OC)cc3)c3ncco3)CC2)c(C#N)c1 (stereo not shown) [Compound 141] occupy?
Result: medium

Problem: Hi, small favor: classify N#Cc1cc(NC(=O)[C@@H]2CCOC2)ccc1N1CCN(C(c2ccccc2)c2ncco2)CC1 (stereo partly shown) [Compound 90] by its Kb when you get a moment.
Result: low

Problem: Which of the defined bands does the recorded Kb of CCC(CC)C(=O)Nc1ccc(N2CCN(C(c3ccccc3)c3noc(-c4cccnc4)n3)CC2)c(F)c1 (stereo not shown) [Compound 238] sit within?
Result: low

Problem: Exercise: read the entry CCC(CC)C(=O)Nc1ccc(N2CCN(C(c3ccccc3)c3ncco3)CC2)c(F)c1 (single isomer, unassigned) [Compound 60] and state which class it falls under.
Result: medium

Where these numbers come from: patent US20120129870A1
